Origin of measurements: the METLIN SMRT retention time set (Domingo-Almenara et al. 2019)

experiment summary: gradient 5% acetonitrile 3 min, to 50% in 2 min, to 85% in 15 min, held 3 min, 100 µL/min
test context: column: Zorbax Extend-C18 2.1 x 50 mm; eluents: water / acetonitrile, 0.1% formic acid
Entries whose RP-LC retention time is below 800 s take T; entries at or above 800 s take F.

Below 800 s on RP-LC retention time? Entry CCN1C(=O)c2cc(C(=O)NCc3ccccc3F)nn2CC1(C)C(=O)NC1CCCC1 (stereo not given)
T

Below 800 s on RP-LC retention time? Entry CCCN1CCN(C(=O)c2cn(-c3cc(N4CCSCC4)ncn3)cn2)CC1
T

Below 800 s on RP-LC retention time? Entry Cc1cc2c(=O)n(CC(=O)Nc3ccc(Cl)cc3F)ccc2s1
F
